assay: soluble on expression in E. coli; label from the status in PepcDB or PDB records
experimental endpoint: soluble on expression in E. coli

MGSDKIHHHHHHMPFLEIRLTKESGRIYEEHSHPMLSIGVMLEGETQFFLQGEEFRLQTGMLAVIPPRMAHACNPLPSQTRSYFILHLSLDFCLEIQGRLFNEGGQNLLPLRAPRIFDPMMYQGLTSLIQSLLKGYDSLKGEAFWGWCERFFARYTLEVSSRGDALISEVAEYLEGDVEEASLAFLSKRFQINPYTLERRFKKAYGTTPKRYHTDARLHRLKKLLRQGIPLALCAQYGGFSDQSHFQRFFKRRVALTPREYQLNFVQ ... not soluble
GPSASLLVQNGTLNVGDAIVVGNTYGRIRAMVNDLGQRIKTAGPSTPVEITGINDVPQAGDRFV ... soluble
MGSDKIHHHHHHMREVHVNDIKEAVKEAIIEANCVLPREVRVAFQEALKREESPIGREVLTQILENAEIAQYYYMPYCQDTGVDVIFVFLGQDVHVVGGSLEDAINQGVREATEEGYLRASMVWDPVFERKNTKDNTPAIIHYEVVPGDRVKIVVAPKGAGSENTSRLAMLKPADGWEGVKKFILETVKFAGPNACPPFTVGVGIGGNFEYCAYLAKKALLRPVGKRHENPLIAKVEEELLEEINKIGWGPMGFGGTVTAVDVKVEMYPCHIASLPVAVNIQCHANRHAERVV ... not soluble
MSLQSSEAIDTEPKTISPVPEGRPVLVLDLDETCIYSTPAKPEKQQNFPIRIKRRNVFIQVRPGMQECIRRLSEKYEIFFYTASTKIYANKVIDAIAPFVDNEHRFFVSRDQLKDLTLINRPLGKVLLLDNSACSAQKNNLLLIKTWIGDPNDNAFTNEVMPLLDNLVKESDIPSACRNLVSSRRYPSLYVIRSEGHHHHHH ... soluble

(Q) Which soluble on expression in E. coli is reported for this sequence? MGSDKIHHHHHHMITSKDNLTLIFVHACGVGNWMWYKQKDYFSNFSCMFIELPEHGDNYNIQPFSVKSAIKMIDKTVRSASGEVVLIGHEMGARLILNYLAEYTNDKVKKIVLSSTMIKTVKEGLFHKILPAKIIEKEFEKKNKNLQNIDFIKKTLDYYGVEEEYKDYYLNDMKRYKPRQLIKIIQEGLLKKLPLNLFIDNDIPALILVGEKETNANRLSAKLLSEYFSNSELIIVDNSTDNHIRTNSMVFNDRVKNFILT
(A) not soluble

(Q) Next sequence up: MGSDKIHHHHHHMNYIYSFINGDFMRFFNREKEITEILSILEGNPDLVYFVYGPLNSGKTALISEIINNRIDKNKYVVFYINLRGIFISKYKDFIEVLFEEYEEDRKPVEIIKSLIKDVPSLCGIPTPKNTLEEILKKKTTKNVFKYITNVLMDIKKEGKQPIIIIDELQKIGDMKINGFLIYELFNYFVDLTKELHLCHVFCLSSDSLFIEQVYSEAMLKDRVDYILVDDFDKETALKFMDFLAEEILNKKLSDDEKELIYSYVGGKPILIIKVIKKLKIKGLKETLDEMLRDEMQKLKYFLEDIKEKDEESYNKIADALEIFKDSYEIEDIKIPKNIREFLVKKNILFLNPQKGTLKPQSYLVWNAIKRLL
(A) not soluble

====

experiment: soluble on expression in E. coli; label from the status in PepcDB or PDB records
experimental endpoint: soluble on expression in E. coli

Worked set:
MSLTENKELRDILGGYHDNIKSKIMENKLDEAIYLVDSLSATFKLPSSGYDRSSCTPYNNEVSEKYGIEEYVNASLIPTPRTLFIAAQNPKDEKRDVFTDLLMKSNTKLVVSLIDDPRYFEEEWLQDRKVIKYMNKDLFIDEIYNIRGRNIRRLRYINWVDFSVITREEMEVFHSYFDSVRTEVVLVHCIAGVGRTGTFIMYDILKRMENITLDTFIDVFLNLRSKRAHLVTNKIQLEFLKNIFLESEGHHHHHH ... soluble
MVNLANVLTNATAATLSAWSNTVPLETYFHFDEASGFGDYYLNVSVIWMNETLYETRIVPAIINVREWLDHMEANDPSPSVTNPYETSGYYAFSTVVPVLMGNMKVA ... not soluble
MVNEYKRIVLLRGLECINKHYFSLFKSLLARDLNLERDNQEQYTTIQIANMMEEKFPADSGLGKLIEFCEEVPALRKRAEILKKERSEGETSLEKNGQEAGPATPTSTTSHMLASERGETSATQEETSTAQAGTSTAQAGTSTAQAGTSTA ... soluble
MVWDVETAKRFLEVIRNETIYYPVLIALHTGMRAGEIVSLKWYDVNFEARIISVVKSVRNNRGLKTSDVKTKTSKRSVYINDVLFSELKNLYETIKPKPDDFVCPRLPTGNLTVGYLSKRFKLLVKRYNFPVIRFHDLRHTFATLMLSLGVNTKIVAEILGHSDIKLTADTYSHVLPTMQESAMKEFSKLWKLEHHHHHH ... soluble

(Q) Form field: reported soluble on expression in E. coli of MKKGLTFSITSAALFFGMNHVASADQIHTVKEDAKLTDIAQTFATTTTEIQNLNHLQNRDYVQVGETIVLPDSDIVEVKDGDTIKAIAERHQMTMNQLYQLNPNLGEVIYPGQLVAVSEKGSAHLNNQLQQIFNSHEAVQPTAQINDDERNKAENNTIRNVRTSGNITPSATQTWQNNDYSASDRQQVSNTTANEQVTSNYQYSPVSHASNGSNYYDWGQCTYYAFDRRQQLGKSVGNLWGNANNWASAAQQSGYQVNNTPEVGAIFQSTAGNYGHVGVVESKNADGSIVVSEMNWQGVGQKSYRTIHNTGQYNYIHLEHHHHHH
(A) not soluble

(Q) Record: MVKPMHLFAVVDALEQAQQFQQVLASRDVSTELVQIEQLNARFLRHHPELALCVDLDGLWLSANGMKMQPDWQAEIPRLKRASLKSEMIARACQINEQPSLIDATAGLGHDSLLMAYLGAHVTLVERHPVLFTLLEDAKSKAENDPFLSKYMQRIHLIFQDAHYYLQQCNQDDRKVDVIYLDPMFPQRDQHHQVIKKQAQVKKQMQLLHLLLPEDGEMDLGDQLLPLAQQIASRVVVKRPKHAVFLNEQQPDHQWQGDACRFDAYFQISM
(A) not soluble

(Q) Note, next up: MGSDKIHHHHHHMIIGGLYMKFFEENYSQEIPTRIKNLRKKHNITQSELGNAGQVSQVESGKRPITSSMLVYLNALTASNYTYIVFGELDEFIENLFHYFFSSILYRDLEAVDENLYSFMSDDLISIQSSCLSIAKTFANFNIQRKRFMISTETEMDTFHKKDDIDVWVGGKSYNPARSFRNNPINELTVIDFEEMADILLLMLRDNLIRSFEINVCNTLFELDKNGEPTTFNLDKIDSIINKWWSENVSTEIIPNLIKKLRENPLFNIGFMVNDILERMYKEDIPKSYLTSVPLVISKKARSTLSIKSNGSQKIDKSKFAQILSL
(A) not soluble
